Attribution: patent US9676715B2

- Tested on: E. faecium CIP 54.32
- TEST NAME: MIC, microdilution method (9.1)
- Assay type: cell-based, Enterococcus faecium
- CONDITION PARAMETERS: Enterococcus faecium, CIP54, 18 h, read-out: MIC

COMPOUND	MIC
CC(C)(C)OC(=O)NCC(NC(=O)c1c[nH]c2ccc(Cl)cc12)c1c[nH]c2ccc(Cl)cc12 (stereo not shown)	> 128 µg/mL
O=C(NC(C(=O)NCCCCO)c1c[nH]c2ccc(Br)cc12)c1c[nH]c2ccc(Br)cc12 (stereo not shown)	> 128 µg/mL
NCCCCNC(=O)C(NC(=O)c1c[nH]c2ccc(Br)cc12)c1c[nH]c2ccc(Br)cc12 (stereo not shown)	> 128 µg/mL
CC(C)(C)OC(=O)NCC(NC(=O)c1c[nH]c2ccc(Br)cc12)c1c[nH]c2ccccc12 (stereo not shown)	> 128 µg/mL
CC(C)(C)OC(=O)NCC(NC(=O)c1c[nH]c2ccc(Br)cc12)c1c[nH]c2cc(Br)ccc12 (stereo not shown)	32 µg/mL
O=C(NC(C(=O)NCCO)c1c[nH]c2ccc(Br)cc12)c1c[nH]c2ccc(Br)cc12 (stereo not shown)	> 128 µg/mL
CC(C)(C)OC(=O)NCC(NC(=O)c1c[nH]c2ccccc12)c1c[nH]c2ccccc12 (stereo not shown)	> 128 µg/mL
CC(C)(C)OC(=O)NCC(NC(=O)c1c[nH]c2cc(Br)ccc12)c1c[nH]c2cc(Br)ccc12 (stereo not shown)	64 µg/mL
CC(C)(C)OC(=O)NCC(NC(=O)C(F)(F)F)c1c[nH]c2ccc(Br)cc12 (stereo not shown)	> 128 µg/mL
CC(C)(C)OC(=O)NCC(NC(=O)c1ccccc1)c1c[nH]c2ccc(Br)cc12 (stereo not shown)	> 128 µg/mL
CC(C)(C)OC(=O)NCC(NC(=O)c1c[nH]c2ccccc12)c1c[nH]c2cc(Br)ccc12 (stereo not shown)	64 µg/mL
CC(C)(C)OC(=O)NCC(NC(=O)c1cccnc1)c1c[nH]c2ccc(Br)cc12 (stereo not shown)	> 128 µg/mL
CC(C)(C)OC(=O)NCC(NC(=O)c1c[nH]c2cc(Br)ccc12)c1c[nH]c2ccc(Br)cc12 (stereo not shown)	> 128 µg/mL
CC(C)(C)OC(=O)NCC(NC(=O)c1c[nH]c2ccc(Br)cc12)c1c[nH]c2ccc(Br)cc12 (stereo not shown)	> 128 µg/mL
CC(C)(C)OC(=O)NCC(NC(=O)c1c[nH]c2cc(Cl)ccc12)c1c[nH]c2ccc(Cl)cc12 (stereo not shown)	> 128 µg/mL
Cn1cc(C(=O)NC(CNC(=O)OC(C)(C)C)c2c[nH]c3ccc(Br)cc23)c2cc(Br)ccc21 (stereo not shown)	> 128 µg/mL
